These data points were gathered from paper PMC9995496.

Measured on: MeCP2-TBL1 interaction (MeCP2-SmBiT / TBL1-LgBiT) (Mus musculus, UniProt Q9QXE7)
Construct: expressed in transfected cells; crude lysate used as a cell-free assay
Sequence (Q9QXE7 166-527): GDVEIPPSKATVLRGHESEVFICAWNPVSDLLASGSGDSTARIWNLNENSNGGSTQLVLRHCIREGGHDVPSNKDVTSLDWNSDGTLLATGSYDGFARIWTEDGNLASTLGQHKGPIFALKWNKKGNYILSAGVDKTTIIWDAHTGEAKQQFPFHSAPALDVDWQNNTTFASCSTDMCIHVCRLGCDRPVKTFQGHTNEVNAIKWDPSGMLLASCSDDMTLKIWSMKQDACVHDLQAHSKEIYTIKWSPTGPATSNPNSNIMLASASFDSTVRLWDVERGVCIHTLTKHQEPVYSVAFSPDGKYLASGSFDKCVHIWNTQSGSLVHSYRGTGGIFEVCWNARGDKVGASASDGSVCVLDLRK
Assay method text: MeCP2-TBL1 NanoLuc luciferase complementation assay (cell-free, extracts of transfected HEK293 cells);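 also: each compound tested at 20 µM final concentration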
Assay type: binding, human
Condition notes: primary screen of the Asinex library, sheet "Sargen output Asinex library", one well per compound, Batch Ref. 1
Measure name: Inhibition percent (%)
Record the value in %, omitting the unit from your answer.

Check out these entries, answers already filled in.
Molecule	Measured on	Units	Inhibition percent
CCN1C(=O)CC[C@@H](C(=O)NCCOc2ccccc2)[C@@H]1c1ccccc1F	MeCP2-TBL1 interaction (MeCP2-SmBiT / TBL1-LgBiT) (Mus musculus, UniProt Q9QXE7)	%	0.19
COc1ccc([C@@H]2C[C@]3(C)NC(=O)CCC[C@@H]3N2CC(=O)Nc2ccc3c(c2)nc(C)n3C)cc1	MeCP2-TBL1 interaction (MeCP2-SmBiT / TBL1-LgBiT) (Mus musculus, UniProt Q9QXE7)	%	4.89
NC(=O)c1cnn2c(C3CCCCN3C(=O)c3ccnc(Cc4ccccc4)c3)ccnc12 (centres unmarked)	MeCP2-TBL1 interaction (MeCP2-SmBiT / TBL1-LgBiT) (Mus musculus, UniProt Q9QXE7)	%	-0.87

Ask: // returns reported Inhibition percent for input Cc1cccc(NC(=O)CCCC(=O)N2[C@H](Cc3ccccc3)C[C@]3(C)NC(=O)CCC[C@H]23)n1
Reply: -3.82

Ask: // returns reported Inhibition percent for input Cc1nc(C(=O)N2CCCC3(C/C=C/COc4ccccc4C(=O)NCCNC3=O)C2)co1 (centres unmarked)
Reply: -0.08

###

Measured on: MeCP2-TBL1 interaction (MeCP2-SmBiT / TBL1-LgBiT) (Mus musculus, UniProt Q9QXE7)
Construct: expressed in transfected cells; crude lysate used as a cell-free assay
Assay method text: MeCP2-TBL1 NanoLuc luciferase complementation assay (cell-free, extracts of transfected HEK293 cells);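 also: each compound tested at 20 µM final concentration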
Type: binding, human
Condition notes: primary screen of the Asinex library, sheet "Sargen output Asinex library", one well per compound, Batch Ref. 1
Measure name: Inhibition percent (%)
Record the value in %, omitting the unit from your answer.

Molecule	Measured on	Measure name	Value observed
Nc1nc(-c2ccccc2)nc2nc(C3CCCN(C(=O)COc4ccccc4)C3)ccc12 (stereo not drawn)	MeCP2-TBL1 interaction (MeCP2-SmBiT / TBL1-LgBiT) (Mus musculus, UniProt Q9QXE7)	Inhibition percent	-0.81
Cc1cc(Cc2cccc(F)c2)cc(C2CN(C(=O)Cc3ccc(F)cc3)CCO2)n1 (stereo not drawn)	MeCP2-TBL1 interaction (MeCP2-SmBiT / TBL1-LgBiT) (Mus musculus, UniProt Q9QXE7)	Inhibition percent	-0.80
Cc1cc(Nc2cccc(C3CCCN(C(=O)C4CCCCN4C(=O)OC(C)(C)C)C3)n2)[nH]n1 (stereo not drawn)	MeCP2-TBL1 interaction (MeCP2-SmBiT / TBL1-LgBiT) (Mus musculus, UniProt Q9QXE7)	Inhibition percent	3.82

Ask: Please state recorded Inhibition percent (tested on MeCP2-TBL1 interaction (MeCP2-SmBiT / TBL1-LgBiT) (Mus musculus, UniProt Q9QXE7)) of C[C@@]12C[C@H]3[C@H](Cc4ccccc4)N[C@@H]1CCCC[C@@H]2N3C(=O)CNC(=O)c1ccccc1
Reply: 1.11

Ask: Please state recorded Inhibition percent (tested on MeCP2-TBL1 interaction (MeCP2-SmBiT / TBL1-LgBiT) (Mus musculus, UniProt Q9QXE7)) of CC(C)=CCC[C@@]1(C)Oc2cc(OCCO)ccc2[C@H]2O[C@H]3CCN(C(=O)OC(C)(C)C)C[C@@H]3C[C@@H]21
Reply: 5.54

###

System: PRKACA-PRKAR2A interaction (SmBiT-PRKACA / LgBiT-PRKAR2A), protein kinase A
Set-up: NanoLuc complementation counter-screen in cell extract, PRKACA with PRKAR2A, loss of luminescence, detects NanoLuc interference
Condition notes: counter-screen for NanoLuc interference; 0.5 h, 20 µM; inhibitor
Each entry gets -1 if its Inh (PKA) stays under 1%, and 1 if its Inh (PKA) is 1% or above.

// known answers, use as guide
Molecule	Classification
CCOC(=O)[C@H](CCc1ccccc1)N[C@@H](C)C(=O)N1[C@H](C(=O)O)C[C@@H]2CCC[C@@H]21	-1
O=C(NCC1(c2nc(-c3ccccc3)cs2)CCOCC1)c1cccc(-c2noc(C(F)(F)F)n2)c1	1
CCc1c2c(nc3ccc(OC(=O)N4CCC(N5CCCCC5)CC4)cc13)-c1cc3c(c(=O)n1C2)COC(=O)[C@]3(O)CC	-1
NS(=O)(=O)c1cc2c(cc1Cl)N=CNS2(=O)=O [UM0133622:02, Chlorothiazide]	-1
COc1cc2c(NC3CCN(C)CC3)nc(N3CCCN(C)CC3)nc2cc1OCCCN(C)C	1
C#C[C@]1(OC(C)=O)CC[C@H]2[C@@H]3CCC4=C[C@@H](OC(C)=O)CC[C@@H]4[C@H]3CC[C@@]21C [UM0134301:02, Ethynodiol diacetate]	1

Ask: Inh (PKA) >= 1% for C=CCNC(N)=S ?
Reply: 1

###

Measured on: MeCP2-TBL1 interaction (MeCP2-SmBiT / TBL1-LgBiT) (Mus musculus, UniProt Q9QXE7)
Construct: expressed in transfected cells; crude lysate used as a cell-free assay
Assay method text: MeCP2-TBL1 NanoLuc luciferase complementation assay (cell-free, extracts of transfected HEK293 cells);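 also: each compound tested at 20 µM final concentration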
Assay type: binding, human
Condition notes: primary screen of Asinex library, single well per compound
Measure name: Inhibition percent
Could you respond with only the numeric value?

Check out these entries, answers already filled in.
Compound	Measure name	Value observed
CC(C)(NC(=O)Cc1cccc(F)c1)C(=O)N1CCCC2(CC1)CN(c1ccccc1)C(=O)O2 (stereo not shown)	Inhibition percent	2.91
O=C(c1ccc(Cc2cccc(F)c2)nc1)N1CCCC2(CC1)CN(c1ccccc1)C(=O)O2 (stereo not shown)	Inhibition percent	-0.22
Cc1cccc(Cc2cccc(C3CCCN(C(=O)c4ccnc(-c5cncnc5)c4)C3)n2)c1 (stereo not shown)	Inhibition percent	-1.96

Consider the additional compound presented here.
Ask: // returns reported Inhibition percent for input Cc1nccn1Cc1ccccc1C(=O)N1C[C@@H](c2cccc(F)c2)[C@@]2(CCCCC(=O)N2)C1
Reply: -2.77

###

Tested on: PRKACA-PRKAR2A interaction (SmBiT-PRKACA / LgBiT-PRKAR2A), protein kinase A
Parameters: NanoLuc complementation counter-screen in cell extract, PRKACA with PRKAR2A, loss of luminescence, detects NanoLuc interference
Condition notes: counter-screen for NanoLuc interference; 0.5 h, 20 µM; inhibitor
Measure name: Inh (PKA)

Check out these entries, answers already filled in.
Compound	Measured on	Value observed
COc1cc(F)c(F)c(Nc2ccc(I)cc2F)c1NS(=O)(=O)C1(C[C@H](O)CO)CC1	PRKACA-PRKAR2A interaction (SmBiT-PRKACA / LgBiT-PRKAR2A), protein kinase A	65.39%
COc1cc(Nc2ncc3c(n2)-c2ccc(Cl)cc2C(c2c(F)cccc2OC)=NC3)ccc1C(=O)O	PRKACA-PRKAR2A interaction (SmBiT-PRKACA / LgBiT-PRKAR2A), protein kinase A	50.43%
Oc1c(Cl)cc(Cl)c(Cl)c1Cc1c(O)c(Cl)cc(Cl)c1Cl	PRKACA-PRKAR2A interaction (SmBiT-PRKACA / LgBiT-PRKAR2A), protein kinase A	52.78%
O=C(NOCC(O)CO)c1cc(Br)c(F)c(F)c1Nc1ccc(I)cc1F (stereo not drawn)	PRKACA-PRKAR2A interaction (SmBiT-PRKACA / LgBiT-PRKAR2A), protein kinase A	48.65%
C=C[C@]1(C)C[C@@H](OC(=O)CS[C@@H]2C[C@H]3CC[C@@H](C2)N3C)[C@]2(C)[C@H](C)CC[C@]3(CCC(=O)[C@H]32)[C@@H](C)[C@@H]1O	PRKACA-PRKAR2A interaction (SmBiT-PRKACA / LgBiT-PRKAR2A), protein kinase A	4.258%

Consider the additional compound presented here.
Ask: // returns reported Inh (PKA) for input Cc1c(F)cc(C(=O)NC2CC2)cc1-c1ccc(C(=O)NCC(C)(C)C)cn1
Reply: 0.7266%
